- Tested on: U2OS
- Procedure summary: Multiplex assay against U2OS
- Type: toxicity, cell-based
- Setup conditions: human, 12 h, 1 µM, compound concentration 1 uM, replicate 1
Endpoint: Population Pyknosed Nuclei (%)
Please don't drop the unit; write it after the number.

CN1CCN(c2nc3cc(C(F)(F)F)ccc3n3cccc23)CC1.O=C(O)/C=C\C(=O)O.O=C(O)/C=C\C(=O)O ... 6%
O=C1COc2nccc(-c3ccccc3F)c2CN1Cc1cc(C(F)(F)F)cc(C(F)(F)F)c1 ... 8%
COc1c(C)cc(NC(=O)c2nn(Cc3ccc(F)cc3)c3c2CN(C(=O)c2ccc[nH]2)C[C@]3(C)C(N)=O)cc1C ... 12%

Please examine the following record next.
Prompt: Form entry - test system: U2OS; read-out: Population Pyknosed Nuclei (%); compound: CC(=O)NCCc1c(Cc2ccccc2)[nH]c2ccccc12 [LUZINDOLE]
Completion: 9%
